Tested on: C6 glioma cells
EXPERIMENT: GDNF release by C6 cells (sandwich ELISA of culture medium)
Format: cell-based, Rat
CONDITION_DETAILS: Rattus norvegicus, C6 glioma, 48 h, read-out: EC50 of GDNF release
EXPERIMENTAL_READOUT: EC50
The answer should read as a number with its unit following.

Reported EC50 of CC1(C)OC2C3C=CC(C)(C2O1)N(CCc1c[nH]c2ccccc12)C3COCc1ccccc1 (stereo not shown) [Compound 14] : 20.1 µM

###

System: bloodstream Trypanosoma brucei brucei
EXPERIMENT: Bioluminescent viability assay on bloodstream T. b. brucei (LUC cell line)
Type: cell-based
CONDITION_DETAILS: 24 h, mean SD (n = 3); read-out: EC50 (µM) against bloodstream T. b. brucei
Item-by-item account of EC50
Respond numerically; units are µM and should not be typed.

A selection of reference data follows.
COC(=O)C1C2C=CC(C)(C3OC(C)(C)OC23)N1CCc1c[nH]c2ccccc12 (stereo not drawn) [Compound 7] | 31.5
CC(C)C(C)(C)[Si](C)(C)OCC1C2C=CC(C)(C3OC(C)(C)OC23)N1CCc1c[nH]c2ccccc12 (stereo not drawn) [Compound 11] | 7.95

Hey, bloodstream Trypanosoma brucei brucei data for CC1(C)OC2C3C=CC(C)(C2O1)N(CCc1c[nH]c2ccccc12)C3COC(=O)Cc1c[nH]c2ccccc12 (stereo not drawn) [Compound 15] : EC50 came out at 3.47

###

Item-by-item account of viability at 10 µM
Test system: bloodstream Trypanosoma brucei brucei
EXPERIMENT: Bioluminescent viability assay on bloodstream T. b. brucei (LUC cell line)
Assay type: cell-based
CONDITION_DETAILS: Trypanosoma brucei, 24 h, read-out: Viability at 10 µM (%), bloodstream T. b. brucei, 10 µM, 24 h
Respond numerically; units are % and should not be typed.

A selection of reference data follows.
CC1(C)OC2C3C=CC(C)(C2O1)N(CCc1c[nH]c2ccccc12)C3COC(=O)Cc1c[nH]c2ccccc12 (stereo not drawn) | 0
CC1(C)OC2C3C=CC(C)(C2O1)N(CCc1c[nH]c2ccccc12)C3CO (stereo not drawn) | 88

Reported viability at 10 µM of CC(C)C(C)(C)[Si](C)(C)OCC1NC2(C)C=CC1C1OC(C)(C)OC12 (stereo not drawn) [Compound 10exo] : 64

Reported viability at 10 µM of CC(C)C(C)(C)[Si](C)(C)OCC1C2C=CC(C)(C3OC(C)(C)OC23)N1CCc1c[nH]c2ccccc12 (stereo not drawn) : 37

Reported viability at 10 µM of COC(=O)C1C2C=CC(C)(C3OC(C)(C)OC23)N1CCc1c[nH]c2ccccc12 (stereo not drawn) : 24

Reported viability at 10 µM of CC1(C)OC2C3C=CC(C)(C2O1)N(CCc1c[nH]c2ccccc12)C3COCc1ccccc1 (stereo not drawn) : 22
